assayed.system: IP receptor (Homo sapiens)
Sequence (P43119 whole entry): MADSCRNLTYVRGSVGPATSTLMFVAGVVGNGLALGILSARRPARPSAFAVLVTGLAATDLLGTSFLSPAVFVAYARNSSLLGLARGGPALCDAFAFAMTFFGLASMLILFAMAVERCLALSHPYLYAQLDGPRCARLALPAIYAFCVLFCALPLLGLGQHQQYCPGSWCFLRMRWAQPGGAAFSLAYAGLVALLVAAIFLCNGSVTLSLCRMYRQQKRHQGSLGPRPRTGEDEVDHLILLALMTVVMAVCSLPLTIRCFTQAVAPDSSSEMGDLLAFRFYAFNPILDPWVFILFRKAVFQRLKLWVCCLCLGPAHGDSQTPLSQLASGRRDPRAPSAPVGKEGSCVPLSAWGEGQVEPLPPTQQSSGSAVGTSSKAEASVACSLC
assay.name: cAMP accumulation in CHO cells stably expressing the IP receptor (CHO-IP), PerkinElmer AlphaScreen assay
conditions.used: agonist activity, 1 hour at room temperature, 4-parameter logistic fit
Listed next: entries and their corresponding EC50.
Report the figure in nM without appending any unit label.

# compound, EC50, nM
records = [
    ("Cc1ccc(-c2nc3cc(CCCCC(=O)NCC(=O)O)[nH]c3nc2-c2ccc(C)cc2)cc1 [Example 8]", 1250),
    ("CCOC(=O)CCCCCCn1ccc2nc(-c3ccc(C)cc3)c(-c3ccc(C)cc3)nc21 [Example 1.4]", 18.3),
    ("Cc1ccc(-c2nc3cc(C)n(CCCCCCC(=O)O)c3nc2-c2ccc(C)cc2)cc1 [Example 9]", 0.3),
    ("COc1ccc(-c2nc3cc(C4CC4)n(CCCCCCC(=O)O)c3nc2-c2ccc(C)cc2)cc1 [Example 10.1]", 2.4),
    ("CCc1c(CC)n(CCCCCCC(=O)O)c2nc(-c3ccc(C)cc3)c(-c3ccc(C)cc3)nc12 [Example 17]", 0.5),
]

Query block: Need EC50, item Cc1cccc(-c2nc3cc(C4CC4)n(CCCCCCC(=O)O)c3nc2-c2cccc(C)c2)c1 [Example 10.4]
Result block: 60.6

Query block: I am curious: what EC50 value has been reported for Cc1ccc(-c2nc3cc(C4CC4)n(CCCCCC(=O)O)c3nc2-c2ccc(C)cc2)cc1 [Example 13] ?
Result block: 2.4
